Cited source for all entries: ChEMBL document CHEMBL3817742

Target: 2-amino-4-hydroxy-6-hydroxymethyldihydropteridine pyrophosphokinase (Escherichia coli (strain K12), UniProt P26281)
Test: Binding affinity to biotinylated Escherichia coli HPPK expressed in Escherichia coli BL21 (DE3) in presence of 1 mM ATP by SPR assay
pKd: −log10 of the molar value.
Readout name: pKd

Cc1ccc(F)c(CSc2nc3c(=O)[nH]c(N)nc3[nH]2)c1    6.02
CCN(C)C(=O)C(C)Sc1nc2c(=O)[nH]c(N)nc2[nH]1 (configuration not stated)    3.92
Nc1nc2[nH]c(SCC(O)C(F)(F)F)nc2c(=O)[nH]1 (configuration not stated)    4.01

P. Nc1nc2[nH]c(SCc3c(F)cccc3F)nc2c(=O)[nH]1
Q. CC(C)CNC(=O)CSc1nc2c(=O)[nH]c(N)nc2[nH]1
## Input Between P and Q , which one shows the larger pKd value? State the label of the item chosen.
## Output P
(P: 5.75, Q: 4.23)

---

Target: 2-amino-4-hydroxy-6-hydroxymethyldihydropteridin e pyrophosphokinase (Staphylococcus aureus)
pKd: −log10 of the molar value.
Readout name: pKd

Field: example entries. Status: answers known.
CNC(=O)CSc1nc2c(=O)[nH]c(N)nc2[nH]1    5.06
N#Cc1cccc(CSc2nc3c(=O)[nH]c(N)nc3[nH]2)c1    6.11
N#Cc1cc(CSc2nc3c(=O)[nH]c(N)nc3[nH]2)ccc1F    5.68
Nc1nc2[nH]c(SCc3cccc(C(=O)O)c3)nc2c(=O)[nH]1    5.59
Nc1nc2[nH]c(SCc3cccc(OC(F)(F)F)c3)nc2c(=O)[nH]1    5.79
COCCSc1nc2c(=O)[nH]c(N)nc2[nH]1    5.56
Nc1nc2[nH]c(SCc3ccccc3Cl)nc2c(=O)[nH]1    5.89
Nc1nc2[nH]c(SCc3ccccc3Br)nc2c(=O)[nH]1    5.82

1. Nc1nc2[nH]c(SCc3ccc(F)c(F)c3)nc2c(=O)[nH]1
2. Cc1cccc(CSc2nc3c(=O)[nH]c(N)nc3[nH]2)c1C
## Input Between 1 and 2 , which one shows the larger pKd value? State the label of the item chosen.
## Output 1

a. Nc1nc2[nH]c(SCc3ccc(F)cc3F)nc2c(=O)[nH]1
b. Nc1nc2[nH]c(SCc3ccccc3[N+](=O)[O-])nc2c(=O)[nH]1
c. Cc1cccc(CSc2nc3c(=O)[nH]c(N)nc3[nH]2)c1F
## Input List from greatest to least pKd. Put the labels in the requested order and write them down.
## Output a, b, c
(a: 6.59, b: 6.27, c: 5.55)

---

Target: 2-amino-4-hydroxy-6-hydroxymethyldihydropteridine pyrophosphokinase (Escherichia coli (strain K12))
Sequence (P26281 whole entry): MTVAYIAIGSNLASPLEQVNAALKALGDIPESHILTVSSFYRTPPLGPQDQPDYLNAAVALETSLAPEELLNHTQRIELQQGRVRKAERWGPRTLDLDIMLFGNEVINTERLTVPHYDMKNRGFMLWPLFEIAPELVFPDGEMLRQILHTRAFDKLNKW
Experiment: Binding affinity to biotinylated Escherichia coli HPPK expressed in Escherichia coli BL21 (DE3) in presence of 1 mM ATP by SPR assay
Readout name: Kd (µM)

Field: example entries. Status: answers known.
COCCSc1nc2c(=O)[nH]c(N)nc2[nH]1    52
Cc1cc(C)cc(CSc2nc3c(=O)[nH]c(N)nc3[nH]2)c1    6.9
N#Cc1cccc(CSc2nc3c(=O)[nH]c(N)nc3[nH]2)c1    3.5

A. Nc1nc2[nH]c(SCc3ccc(F)cc3)nc2c(=O)[nH]1
B. Cc1ccc(C)c(CSc2nc3c(=O)[nH]c(N)nc3[nH]2)c1
C. CNC(=O)CSc1nc2c(=O)[nH]c(N)nc2[nH]1
D. Nc1nc2[nH]c(SCCO)nc2c(=O)[nH]1
E. Nc1nc2[nH]c(SCc3cccc(Cl)c3)nc2c(=O)[nH]1
## Input List from greatest to least Kd. Put the labels in the requested order and write them down.
## Output D, C, B, A, E

I. Nc1nc(O)c2[nH]c(SCc3ccc(Cl)cc3)nc2n1
II. Nc1nc2[nH]c(SCc3ccc(F)c(F)c3)nc2c(=O)[nH]1
## Input Smaller Kd value? Options are I and II State the label of the item chosen.
## Output II
